// reported protein stability index for each item listed
B1: KLHDC10 (parent)
chain: PSLLELAWEKLLAAFPNLANLSRT

# Variants of: B1
# ASSAY OVERVIEW: protein stability index of a GFP-peptide fusion (GPS, HEK-293T) (PSI 1-6); higher = more stable;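 also: lentivirally expressed fusions sorted by FACS into six bins by GFP to DsRed ratio, PSI derived from sequencing read proportions per bin multiplied by bin number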
# MEASUREMENT SETUP: c terminus: a fixed tail appended
Enter a number only.

Reference set, count: 5
MUTATION KEY: E9G
MEASURED VALUE: 2

MUTATION KEY: N20A
MEASURED VALUE: 2.08

MUTATION KEY: R23Q
MEASURED VALUE: 2.1

MUTATION KEY: P16Q
MEASURED VALUE: 2.12

MUTATION KEY: L18K
MEASURED VALUE: 1.78

May I ask what protein stability index has been recorded for N17T ?
1.8
